Known OD of a selection of binders
assayed_system: T1, Full length recombinant HBcAg (rHBcAg) encompassing residues 1-183 (hepatitis B virus, UniProt P03146 1-183)
T1 construct: range 1-183; also called hepatitis B virus core antigen
T1 sequence (P03146 whole entry, the tested form may be a part): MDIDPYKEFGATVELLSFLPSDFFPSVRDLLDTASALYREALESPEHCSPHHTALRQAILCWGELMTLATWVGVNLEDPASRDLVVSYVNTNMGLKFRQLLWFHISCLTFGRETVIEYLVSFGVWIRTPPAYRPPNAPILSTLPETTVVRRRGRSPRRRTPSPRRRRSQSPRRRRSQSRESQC
experiment_summary: EIA, peptide coated 3.125 ug/ml, HBcAg 10 ug/ml
measured_property: OD (OD)

                                     binder  recorded_number
0  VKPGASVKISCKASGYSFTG (also called Peptide # 25) [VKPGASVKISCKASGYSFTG (SEQ. ID. No. 28)]            0.217
1  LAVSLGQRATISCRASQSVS [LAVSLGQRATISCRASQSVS (SEQ. ID. No. 16)]            0.355
2  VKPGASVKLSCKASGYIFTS (also called Peptide # 2; Pept. #2) [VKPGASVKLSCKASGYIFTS (SEQ. ID. No. 5)]            0.333
3  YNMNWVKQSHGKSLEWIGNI (also called Peptide # 27) [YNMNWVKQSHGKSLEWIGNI (SEQ. ID. No. 30)]            0.168
4  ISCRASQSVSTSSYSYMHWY [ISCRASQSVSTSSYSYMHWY (SEQ. ID. No. 17)]            0.413
5  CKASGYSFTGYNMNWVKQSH (also called Peptide # 26) [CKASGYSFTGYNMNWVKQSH (SEQ. ID. No. 29)]            0.171

The origin of these recorded values is patent US20020058247A1.
